System: ATP;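 note: ATP exposure 15 min at 22 °C before imaging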
assay: switch fluorescence ratio, 500 uM ATP over buffer (Cy3 cluster intensity, sum of 5 cycles each) (fold (ratio)); higher = stronger signal-on switching upon ATP binding; sequences stand for … in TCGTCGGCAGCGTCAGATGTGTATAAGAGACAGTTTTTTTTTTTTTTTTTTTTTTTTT…TC
test_parameters: aptamer strand: ATP DNA aptamer (quencher-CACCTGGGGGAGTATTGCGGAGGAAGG + anchor), 100 nM annealed; ATP concentration: 500 uM
Catalogue of sequences with associated switch fluorescence ratio
Write no unit; give the number alone.

Please review the following examples before continuing.
| sequence_entry | switch fluorescence ratio |
| --- | --- |
| CAATGAGTCT | 1.03 |
| ACGTGTGGGC | 1.02 |
| GGGACAAGTC | 1.02 |
| AGTTAGTGAA | 0.99 |
| TGTTTTGATG | 1.04 |

-- ask # query: switch fluorescence ratio of entry GCTTCCGGGG
-- reply 1.27

-- ask # query: switch fluorescence ratio of entry TCGGGTTCCG
-- reply 0.963

-- ask # query: switch fluorescence ratio of entry AGGGATGTTT
-- reply 0.999

-- ask # query: switch fluorescence ratio of entry TGTCGGTGGG
-- reply 0.992

-- ask # query: switch fluorescence ratio of entry TTTTCCTTTT
-- reply 1.04

-- ask # query: switch fluorescence ratio of entry GAGTGTTGGG
-- reply 1

-- ask # query: switch fluorescence ratio of entry ATGATGGTGG
-- reply 1.02

###

System: ATP;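 note: ATP exposure 15 min at 22 °C before imaging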
assay: switch fluorescence ratio, 500 uM ATP over buffer (Cy3 cluster intensity, sum of 5 cycles each) (fold (ratio)); higher = stronger signal-on switching upon ATP binding; sequences stand for … in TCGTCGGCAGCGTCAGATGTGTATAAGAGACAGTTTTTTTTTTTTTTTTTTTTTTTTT…TC
test_parameters: aptamer strand: ATP DNA aptamer (quencher-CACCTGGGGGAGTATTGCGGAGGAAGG + anchor), 100 nM annealed; ATP concentration: 500 uM
1 (yes) means recorded switch fluorescence ratio is 1 or above; 0 (no) means it is below 1.

| sequence_entry | class_assignment |
| --- | --- |
| TAAACAAACG | 1 (yes) |
| TTCGTTTGAC | 1 (yes) |
| TCAGGGAGTT | 0 (no) |
| ACGAAAGTCA | 1 (yes) |
| AAGTAAGTGG | 1 (yes) |

-- ask Check this sequence for switch fluorescence ratio at or above 1: GGGCGCGTAT
-- reply 1 (yes)

-- ask Check this sequence for switch fluorescence ratio at or above 1: GGCGGATATA
-- reply 0 (no)

###

System: ATP;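 note: ATP exposure 15 min at 22 °C before imaging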
assay: switch fluorescence ratio, 500 uM ATP over buffer (Cy3 cluster intensity, sum of 5 cycles each) (fold (ratio)); higher = stronger signal-on switching upon ATP binding; sequences stand for … in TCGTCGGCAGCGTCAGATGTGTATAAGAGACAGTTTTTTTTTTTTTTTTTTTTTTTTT…TC
test_parameters: aptamer strand: ATP DNA aptamer (quencher-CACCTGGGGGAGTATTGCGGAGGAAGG + anchor), 100 nM annealed; ATP concentration: 500 uM
measurement_kind: switch fluorescence ratio
Write no unit; give the number alone.

Please review the following examples before continuing.
| sequence_entry | switch fluorescence ratio |
| --- | --- |
| GCGAGGGTCG | 1.01 |
| GAGATTTAGT | 0.973 |

-- ask # query: switch fluorescence ratio of entry ATTGTTCTGG
-- reply 1

-- ask # query: switch fluorescence ratio of entry AGATGGGGTG
-- reply 1.23

-- ask # query: switch fluorescence ratio of entry TGTTCGGGTT
-- reply 0.99

-- ask # query: switch fluorescence ratio of entry CCTTACCTGT
-- reply 1.07

-- ask # query: switch fluorescence ratio of entry ATATTGGGGT
-- reply 1.01

-- ask # query: switch fluorescence ratio of entry CGGGCGCTGA
-- reply 0.984

###

Tested on: ATP;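 note: ATP exposure 15 min at 22 °C before imaging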
assay: switch fluorescence ratio, 500 uM ATP over buffer (Cy3 cluster intensity, sum of 5 cycles each) (fold (ratio)); higher = stronger signal-on switching upon ATP binding; sequences stand for … in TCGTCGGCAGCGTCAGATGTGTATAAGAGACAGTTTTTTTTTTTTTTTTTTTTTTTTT…TC
test_parameters: aptamer strand: ATP DNA aptamer (quencher-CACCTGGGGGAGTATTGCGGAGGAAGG + anchor), 100 nM annealed; ATP concentration: 500 uM
measurement_kind: switch fluorescence ratio
Write no unit; give the number alone.

| sequence_entry | switch fluorescence ratio |
| --- | --- |
| TTAGGTGGGC | 1.08 |
| TTTATAGGGA | 0.987 |
| AACTTCTATT | 1.02 |

-- ask # query: switch fluorescence ratio of entry GAAGGAAGAT
-- reply 0.971

-- ask # query: switch fluorescence ratio of entry CGGGAGTGCG
-- reply 1.02

-- ask # query: switch fluorescence ratio of entry TTCGTGAACG
-- reply 1

-- ask # query: switch fluorescence ratio of entry GAGTAAGCGG
-- reply 1.01

-- ask # query: switch fluorescence ratio of entry TTGACGTGCC
-- reply 1.02

-- ask # query: switch fluorescence ratio of entry CAGGTCGCTT
-- reply 1.01

-- ask # query: switch fluorescence ratio of entry TGCGAATTCG
-- reply 0.996

-- ask # query: switch fluorescence ratio of entry CAGGCGAGGG
-- reply 0.991

-- ask # query: switch fluorescence ratio of entry TTAATTTGGT
-- reply 0.971

-- ask # query: switch fluorescence ratio of entry AGTAAATCCT
-- reply 1.16

-- ask # query: switch fluorescence ratio of entry ATTGGAGCGT
-- reply 0.986

-- ask # query: switch fluorescence ratio of entry GCATAATTTT
-- reply 1.01

-- ask # query: switch fluorescence ratio of entry ATATGAGGGG
-- reply 0.965

-- ask # query: switch fluorescence ratio of entry TGGGGTTGTG
-- reply 0.987

-- ask # query: switch fluorescence ratio of entry ATGGTCGCGG
-- reply 0.985

-- ask # query: switch fluorescence ratio of entry TGTTTGGTTT
-- reply 1.01

-- ask # query: switch fluorescence ratio of entry CCCGTGTGAG
-- reply 0.983

###

Catalogue of sequences with associated switch fluorescence ratio
Test system: ATP;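 note: ATP exposure 15 min at 22 °C before imaging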
assay: switch fluorescence ratio, 500 uM ATP over buffer (Cy3 cluster intensity, sum of 5 cycles each) (fold (ratio)); higher = stronger signal-on switching upon ATP binding; sequences stand for … in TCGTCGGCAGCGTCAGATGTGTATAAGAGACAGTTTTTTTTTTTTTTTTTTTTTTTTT…TC
test_parameters: aptamer strand: ATP DNA aptamer (quencher-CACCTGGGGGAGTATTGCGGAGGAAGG + anchor), 100 nM annealed; ATP concentration: 500 uM
Write no unit; give the number alone.

Please review the following examples before continuing.
| sequence_entry | measurement_kind | measured |
| --- | --- | --- |
| GAACACTTAT | switch fluorescence ratio | 1.04 |
| TGGGTATGTG | switch fluorescence ratio | 0.972 |
| CTTTATTCGT | switch fluorescence ratio | 0.99 |
| TTGCTATACG | switch fluorescence ratio | 1.2 |
| AGTATTGGTT | switch fluorescence ratio | 0.986 |
| AGACTCAATG | switch fluorescence ratio | 0.988 |
| ATCATTAGGG | switch fluorescence ratio | 0.976 |
| ATTACTTTTT | switch fluorescence ratio | 1 |
| AATGTGTTG | switch fluorescence ratio | 0.984 |
| CGGGGGTTAT | switch fluorescence ratio | 1.03 |

Please look at the following sequence next.
-- ask # query: switch fluorescence ratio of entry AATCCTGGAG
-- reply 1.02

###

Catalogue of sequences with associated switch fluorescence ratio
Test system: ATP;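 note: ATP exposure 15 min at 22 °C before imaging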
assay: switch fluorescence ratio, 500 uM ATP over buffer (Cy3 cluster intensity, sum of 5 cycles each) (fold (ratio)); higher = stronger signal-on switching upon ATP binding; sequences stand for … in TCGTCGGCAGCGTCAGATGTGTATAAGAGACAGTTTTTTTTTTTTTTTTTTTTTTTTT…TC
test_parameters: aptamer strand: ATP DNA aptamer (quencher-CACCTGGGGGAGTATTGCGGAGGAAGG + anchor), 100 nM annealed; ATP concentration: 500 uM
Write no unit; give the number alone.

| sequence_entry | switch fluorescence ratio |
| --- | --- |
| TCGATCCTGA | 0.998 |
| CGCACCGGGT | 1.05 |

-- ask Give the reported switch fluorescence ratio for TTTTCGATGG (system: ATP).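 Note: ATP exposure 15 min at 22 °C before imaging.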
-- reply 1.01

-- ask Give the reported switch fluorescence ratio for GCCAGCATAT (system: ATP).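 Note: ATP exposure 15 min at 22 °C before imaging.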
-- reply 1.15

-- ask Give the reported switch fluorescence ratio for TTCCTAATTT (system: ATP).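 Note: ATP exposure 15 min at 22 °C before imaging.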
-- reply 1.63

-- ask Give the reported switch fluorescence ratio for ACATAGAGAT (system: ATP).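 Note: ATP exposure 15 min at 22 °C before imaging.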
-- reply 1.02

-- ask Give the reported switch fluorescence ratio for TTTTGGTAAC (system: ATP).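 Note: ATP exposure 15 min at 22 °C before imaging.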
-- reply 1.01

-- ask Give the reported switch fluorescence ratio for ATTTACAGGT (system: ATP).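 Note: ATP exposure 15 min at 22 °C before imaging.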
-- reply 1.03

-- ask Give the reported switch fluorescence ratio for ACGAGGTTCT (system: ATP).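 Note: ATP exposure 15 min at 22 °C before imaging.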
-- reply 1.02

-- ask Give the reported switch fluorescence ratio for ATAATGGGGG (system: ATP).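 Note: ATP exposure 15 min at 22 °C before imaging.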
-- reply 0.977

-- ask Give the reported switch fluorescence ratio for TTTTCCAAAT (system: ATP).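 Note: ATP exposure 15 min at 22 °C before imaging.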
-- reply 1.02

-- ask Give the reported switch fluorescence ratio for CGGGTTCTTT (system: ATP).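 Note: ATP exposure 15 min at 22 °C before imaging.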
-- reply 1.03

-- ask Give the reported switch fluorescence ratio for TTGGTATAA (system: ATP).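 Note: ATP exposure 15 min at 22 °C before imaging.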
-- reply 0.999

-- ask Give the reported switch fluorescence ratio for ATGGAAATGG (system: ATP).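 Note: ATP exposure 15 min at 22 °C before imaging.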
-- reply 0.996
